Would you mind telling me the reported -log Kd value of each entry?
biological target: HLA-A*02:06 molecule; test: flow cytometry, RA2.6 cells
Enter the number alone.

Exam item: Give the value of -log Kd value reported for the following: LAEEHGATL [peptide of SEQ ID NO: 61]
Marked response: -4.5

Exam item: Give the value of -log Kd value reported for the following: VLLQQFQTA [peptide of SEQ ID NO: 15]
Marked response: -5.47

Exam item: Give the value of -log Kd value reported for the following: ALAPPTAQL [peptide of SEQ ID NO: 6]
Marked response: -6.41
